This listing pairs binders with measured pKd.
biological target: T1, hCD47-ECD/Fc protein (Sinobiological) (human, UniProt Q08722 19-139, biotinylated in the Octet assay, sites not stated); experiment: BLI (Octet RED96), biotin-hCD47-ECD/Fc on SA sensors, 1:1 model;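 also: test antibodies as analytes, 300 s association then 300 s dissociation in running buffer, with benchmark reference antibodies run as controls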
T1 construct: extracellular domain; Bought protein; also called human CD47-Fc antigen; recombinant hCD47-ECD/Fc; not shown: Fc part of the bought fusion protein
T1 sequence (Q08722 19-139 limits assumed): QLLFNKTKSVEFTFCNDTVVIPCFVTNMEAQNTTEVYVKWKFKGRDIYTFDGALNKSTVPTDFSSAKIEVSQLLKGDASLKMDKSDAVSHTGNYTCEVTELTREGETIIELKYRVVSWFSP
Interpret pKd as the negative base-10 log of the concentration measured in mol/L.

Measured pKd of TY25029 (antibody, V domains shown) VH: EVQLVESGGGLVQPGGSLRLSCAASGYTFSNYWIHWVRQAPGKGLEWIGIIYPSSGSTKYAQKFQGRVTISRDNSKNTLYLQLNSLRAEDTAVYYCARDRAPGSSGYYDGFDYWGQGTLVTVSS VL: DIQLTQSPSSLSASVGDRVTITCRASQSVDFHGISFLHWYQQKPGKAPKLLIYDASSLESGVPSRFSGSGSGTDFTLTISSLQPEDFATYYCHQRSTTPLTFGQGTKVEIKR : 8.82

Measured pKd of TY25031 (antibody, V domains shown) VH: EVQLVESGGGLVQPGGSLRLSCAASGYSITSGYHWGWIRQAPGKGLEWIGRIYPSSGSTKYAQKFQGRVTISRDNSKNTLYLQLNSLRAEDTAVYYCARGVRGSYGWFDVWGQGTLVTVSS VL: DIQLTQSPSSLSASVGDRVTITCSASSRVSYVYWYQQKPGKAPKLLIYAASTLQSGVPSRFSGSGSGTDFTLTISSLQPEDFATYYCQHYVSSPRVYTFGQGTKVEIKR : 9.32

Where do these numbers come from? They come from patent US20240417463A1.
